Source listed as patent US20230149462A1.

Target: T1, human BCMA (human, UniProt Q02223 1-54, limits assumed)
T1 construct: also called B-cell maturation antigen; human BCMA polypeptide
T1 sequence: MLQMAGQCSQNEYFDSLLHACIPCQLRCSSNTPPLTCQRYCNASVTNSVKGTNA
Assay: CLIPS peptide epitope mapping (Pepscan)
METRIC_NAME: binding result

BINDER	MEASURED_VALUE
BCMA-25 scFv (scFv) scFv: EVQLVQSGGGLVQPGRSLRLSCTASGFTFGDYAMSWFRQAPGKGLEWVGFIRSKAYGGTTEYAASVKGRFTISRDDSKSIAYLQMNSLKTEDTAVYYCAAWSAPTDYWGQGTLVTVSSGGGGSGGGGSGGGGSDIQMTQSPAFLSASVGDRVTVTCRASQGISNYLAWYQQKPGNAPRLLIYSASTLQSGVPSRFRGTGYGTEFSLTIDSLQPEDFATYYCQQSYTSRQTFGPGTRLDIK	binds
BCMA-55-scFv (scFv, also called BCMA-55-scFV-mFc) scFv: QSALTQPASVSASPGQSIAISCTGTSSDVGWYQQHPGKAPKLMIYEDSKRPSGVSNRFSGSKSGNTASLTISGLQAEDEADYYCSSNTRSSTLVFGGGTKLTVLGSRGGGGSGGGGSGGGGSLEMAEVQLVQSGAEMKKPGASLKLSCKASGYTFIDYYVYWMRQAPGQGLESMGWINPNSGGTNYAQKFQGRVTMTRDTSISTAYMELSRLRSDDTAMYYCARSQRDGYMDYWGQGTLVTVSS	binds
BCMA-52-scFv-mFc (Fc fusion, not shown: mFc portion named in the label) SYELTQPPSASGTPGQRVTMSCSGTSSNIGSHSVNWYQQLPGTAPKLLIYTNNQRPSGVPDRFSGSKSGTSASLAISGLQSEDEADYYCAAWDGSLNGLVFGGGTKLTVLGSRGGGGSGGGGSGGGGSLEMAEVQLVQSGAEVKKPGESLKISCKGSGYSFTSYWIGWVRQMPGKGLEWMGIIYPGDSDTRYSPSFQGHVTISADKSISTAYLQWSSLKASDTAMYYCARYSGSFDNWGQGTLVTVSS	binds
